Biological target: β1 adrenoreceptor (guinea-pig atria) (Cavia porcellus)
Construct: the atria is dissected from the ventricles; from tissue; host or cells: isolated guinea-pig atria (organ bath)
Sequence (H0W3H1 1-470): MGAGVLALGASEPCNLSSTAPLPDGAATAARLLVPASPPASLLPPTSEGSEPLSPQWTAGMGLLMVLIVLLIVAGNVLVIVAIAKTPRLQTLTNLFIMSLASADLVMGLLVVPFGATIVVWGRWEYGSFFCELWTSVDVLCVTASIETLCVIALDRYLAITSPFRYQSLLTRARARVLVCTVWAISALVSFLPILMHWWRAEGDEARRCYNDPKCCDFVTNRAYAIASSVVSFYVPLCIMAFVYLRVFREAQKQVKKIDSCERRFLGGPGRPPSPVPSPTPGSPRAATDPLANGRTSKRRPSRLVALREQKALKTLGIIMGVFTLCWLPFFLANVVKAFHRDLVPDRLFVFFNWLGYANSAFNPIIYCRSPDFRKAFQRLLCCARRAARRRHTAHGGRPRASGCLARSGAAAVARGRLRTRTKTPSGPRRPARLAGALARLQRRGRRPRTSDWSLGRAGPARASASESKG
Assay: Isoprenaline dose-response in isolated guinea-pig atria (pA2)
Conditions: isolated guinea-pig atria, antagonism of isoprenaline, 37° C.; read-out: Guinea Pig, pA2 Atria, B1 (converted)
reported_metric: Kb
Form entry: enter the amount, then its unit.

# example entries with known answers
CCOCCOc1ccc(OCC(O)CNCCc2ccc(OC)c(OC)c2)cc1 (racemic) [Example 7] : 63.1 nM
COCCOc1ccc(OCC(O)CNCCOc2ccc(OC)cc2)cc1 (racemic) [Example 5] : 100 nM
COc1ccc(CCNCC(O)COc2ccc(OCCOCC3CC3)cc2C#N)cc1OC (racemic) [Example 4] : 50.1 nM

Now consider the entry below.
Request: Fill blank: measured Kb of the molecule COc1ccc(OCCNCC(O)COc2ccc(OCCOCC(C)C)cc2C#N)cc1 (racemic) [Example 2] is ____.
Response: 39.8 nM

* * *

Molecular target: β2 adrenoreceptor (guinea-pig trachea) (Cavia porcellus, UniProt Q8K4Z4)
Construct: five rings 1–2 mm in width are cut from the trachea; from tissue; host or cells: isolated guinea-pig tracheal rings (organ bath)
Sequence (Q8K4Z4 whole entry): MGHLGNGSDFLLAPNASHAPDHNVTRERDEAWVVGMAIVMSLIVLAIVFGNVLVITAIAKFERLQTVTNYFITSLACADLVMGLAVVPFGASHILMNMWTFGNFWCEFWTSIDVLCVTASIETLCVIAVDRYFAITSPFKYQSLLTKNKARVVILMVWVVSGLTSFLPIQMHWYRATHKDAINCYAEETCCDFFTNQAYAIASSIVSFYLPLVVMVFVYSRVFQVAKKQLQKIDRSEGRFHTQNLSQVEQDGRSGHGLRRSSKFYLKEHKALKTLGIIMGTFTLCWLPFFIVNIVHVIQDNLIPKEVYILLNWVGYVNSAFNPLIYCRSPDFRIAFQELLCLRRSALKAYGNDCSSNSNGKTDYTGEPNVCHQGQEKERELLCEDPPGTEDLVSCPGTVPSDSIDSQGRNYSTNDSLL
Assay: Isoprenaline relaxation of carbachol-contracted isolated guinea-pig trachea (pA2)
Settings: isolated guinea-pig tracheal rings, carbachol 10^-6 M contraction, 37° C., read-out: Guinea Pig, pA2 Trachea, B2 (converted)
reported_metric: Kb (µM)
One number for each entry, in µM.

List reported Kb for each of these molecules:
1. COc1ccc(CCNCC(O)COc2ccc(OCCOCC3CC3)cc2C#N)cc1OC (racemic)
2. COCCOc1ccc(OCC(O)CNCCOc2ccc(OC)cc2)cc1 (racemic)
3. COc1ccc(OCCNCC(O)COc2ccc(OCCOCC(C)C)cc2C#N)cc1 (racemic)

Response:
1. 39.8
2. 50.1
3. 39.8

* * *

Assay: Duration of beta blockade after intravenous infusion in conscious rats (heart rate response to isoprenaline)
Type: in vivo, Sprague-Dawley rats
Settings: Sprague-Dawley, rat, plasma, iv; conscious male rats, after stopping i.v. infusion; time for inhibition of isoprenaline heart rate response to fall by 50%; read-out: Estimated Plasma Half Life
reported_metric: half-life

List reported half-life for each of these compounds:
1. COc1ccc(CCNCC(O)COc2ccc(OCCOCC3CC3)cc2C#N)cc1OC (racemic)
2. COc1ccc(OCCNCC(O)COc2ccc(OCCOCC(C)C)cc2C#N)cc1 (racemic)

Response:
1. ~15 min
2. ~17 min

List reported half-life for each of these compounds:
1. CCOCCOc1ccc(OCC(O)CNCCc2ccc(OC)c(OC)c2)cc1 (racemic)
2. COCCOc1ccc(OCC(O)CNCCOc2ccc(OC)cc2)cc1 (racemic)

Response:
["~10 min", "10 to 20 min"]

* * *

Provide the reported melting point of each item.

# example entries with known answers
CCOCCOc1ccc(OCC(O)CNCCc2ccc(OC)c(OC)c2)cc1 (racemic) [Example 7] : 140 to 143 °C
COc1ccc(CCNCC(O)COc2ccc(OCCOCC3CC3)cc2C#N)cc1OC (racemic) [Example 4] : 84 to 86 °C
COc1ccc(OCCNCC(O)COc2ccc(OCCOCC(C)C)cc2C#N)cc1 (racemic) [Example 2] : 69 to 71 °C

Now consider the entry below.
Request: Fill blank: measured melting point of the compound COCCOc1ccc(OCC(O)CNCCOc2ccc(OC)cc2)cc1 (racemic) [Example 5] is ____.
Response: 113 to 115 °C
